# TEST_SYSTEM: Transient receptor potential cation channel subfamily V member 1 (Homo sapiens) (UniProt Q8NER1)
# Sequence (Q8NER1 whole entry, looked up): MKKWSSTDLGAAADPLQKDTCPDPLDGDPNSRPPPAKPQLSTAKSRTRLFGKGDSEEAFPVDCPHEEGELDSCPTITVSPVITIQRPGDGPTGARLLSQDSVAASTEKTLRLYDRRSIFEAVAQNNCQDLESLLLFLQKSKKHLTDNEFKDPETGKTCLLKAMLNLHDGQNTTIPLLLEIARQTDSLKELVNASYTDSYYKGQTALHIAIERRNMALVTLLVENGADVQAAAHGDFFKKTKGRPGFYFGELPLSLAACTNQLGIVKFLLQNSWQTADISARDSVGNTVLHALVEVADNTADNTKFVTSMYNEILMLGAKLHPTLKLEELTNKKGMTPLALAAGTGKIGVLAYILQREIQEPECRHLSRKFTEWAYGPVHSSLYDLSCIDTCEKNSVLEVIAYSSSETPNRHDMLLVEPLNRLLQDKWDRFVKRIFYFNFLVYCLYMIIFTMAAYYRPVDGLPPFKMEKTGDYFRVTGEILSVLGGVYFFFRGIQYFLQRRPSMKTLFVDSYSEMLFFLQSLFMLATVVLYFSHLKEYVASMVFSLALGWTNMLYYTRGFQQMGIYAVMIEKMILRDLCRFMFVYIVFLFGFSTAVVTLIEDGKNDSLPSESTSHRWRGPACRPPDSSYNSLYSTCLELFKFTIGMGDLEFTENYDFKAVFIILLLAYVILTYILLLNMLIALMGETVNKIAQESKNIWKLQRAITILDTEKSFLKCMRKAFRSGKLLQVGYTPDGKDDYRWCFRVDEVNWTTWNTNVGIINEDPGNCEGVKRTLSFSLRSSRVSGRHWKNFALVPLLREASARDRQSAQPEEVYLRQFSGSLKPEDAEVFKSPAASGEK
# TEST_NAME: HTS Assay for Compounds that Act as Agonists of the Vanilloid Receptor 1
# REPORTED_CONDITIONS: TRPV1-expressing cells, Fluo-8 calcium influx, agonist mode; at 8.33 µM
Hit rate of the full screen: of about 320,000 compounds, about 620 (0.19%) were called active. Not shown: some 6% with an inconclusive outcome. Rule as the data show it: active = activation above about 80%; inconclusive = between about 30% and that limit; inactive = weaker than that. The entries come from a sample that favours actives as a whole.
Outcome codes: True = active, False = inactive

COMPOUND | LABEL_CLASS
COc1ccc(CNC(=O)COc2ccccc2C(=O)c2cnn(-c3ccccc3)c2)cc1OC | False
C=C(C)CNc1cc(S(=O)(=O)N2CCOCC2)ccc1Oc1ccccc1 | False
O=C(NC1CCCC1)c1cc(-c2ccccc2)on1 | False
Cc1cccn2c(=O)c3cc(C(=O)NCC4CCCO4)c(=N)n(Cc4ccc(F)cc4)c3nc12 (stereo not drawn) | True
COc1ccc(CCC(=O)N2CCN(S(=O)(=O)c3ccc(OC)cc3)CC2)cc1 | False
COc1ccc([C@H]2CC(=O)C=C(/C=C/c3ccc(Cl)cc3)C2)cc1 | False
COc1cc(C(=O)NNC(=O)CN2C(=O)NC3(CCCC3)C2=O)cc(OC)c1OC | False
COc1ccc(NC(=O)COC(=O)c2n[nH]c3ccccc23)c(OC)c1 | False
Oc1ccc(Cl)cc1C1C=C(c2ccc3c(c2)OCO3)NC(c2ccc(F)c(Br)c2)N1 (stereo not drawn) | False
O=C(NC1CC1)c1ccc(-c2ccccc2)cc1 | True
COc1ccc(OC)c(/C=N/NC(=O)c2ccc[n+](CC(=O)c3ccccc3)c2)c1 | False
NC(=O)NC(CC(=O)NNC(=O)c1ccccn1)c1ccc(Cl)cc1 (stereo not drawn) | False
Cc1cccc(C(=O)Nc2ccc(CC(=O)O)cc2)c1 | False
CCCCn1nc(C(=O)Nc2cccc(C(=O)NC3CC3)c2)c2ccccc2c1=O | False
O=C(CNS(=O)(=O)c1ccc2c(c1)OCCCO2)N1CCN(c2ccc(F)cc2)CC1 | False
Cc1ccc2nc(-c3ccncc3)cc(C(=O)Nc3ccc4c(c3)OCCO4)c2c1 | False
O=C(/C=C\c1cn(-c2ccccc2)nc1-c1cccs1)N1CCOCC1 | True
O=C(Nc1ccc(F)cc1)c1cc2c(s1)CCCC2 | True
Cc1cccc(N2C(=O)c3ccc(C(=O)Nc4cccc(C(=O)O)c4)cc3C2=O)c1 | False
O=C(c1cc(COc2cccc(C(F)(F)F)c2)on1)N1CCSCC1 | True
O=C(CSc1nnc(CN2CCCC2)n1-c1ccc(F)cc1)c1ccc2c(c1)OCO2 | False
O=C(O)c1ccc(N/N=C/c2cn(-c3ccccc3)nc2-c2cccs2)cc1 | False
CC(C)c1ccc(S(=O)(=O)N2CCN(C(C)C(=O)NC3CCCC3)CC2)cc1 (stereo not drawn) | False
CCN(CC(=O)Nc1ccccc1C(F)(F)F)C(=O)C1CCN(C(=O)Nc2ccccc2)CC1 | False
O=C(NCC1CCCO1)c1cc2c(s1)CCCC2 (stereo not drawn) | False
Cc1cccc(C(=O)Nc2ccc3c(c2)C(=O)N(CC(C)C)C3=O)c1 | True
COc1ccc(S(=O)(=O)N2CCOCC2)cc1NC(=O)Cc1coc2cc(C)ccc12 | False
O=S(=O)(c1cccs1)N1CCN(CCOc2ccccc2)CC1 | False
COC(=O)c1ccc(CSc2ccc(S(=O)(=O)N3CCCCC3)cn2)cc1 | False
O=C(/C=C/c1ccc(Cl)c([N+](=O)[O-])c1)c1ccc(O)cc1 | True
CCCCN(C(=O)c1ccc2ccccc2c1)c1c(N)n(CCCC)c(=O)[nH]c1=O | False
CSc1ccc(Cl)c(C(=O)OCC(=O)N2CCNC2=O)c1 | False
CN(C)c1ccc(/C=C/C(=O)c2ccc(C(C)(C)C)cc2)cc1[N+](=O)[O-] | False
